Tested system: HCoV-OC43 spike protein (Human coronavirus OC43, UniProt P36334)
Sequence (P36334 14-1297): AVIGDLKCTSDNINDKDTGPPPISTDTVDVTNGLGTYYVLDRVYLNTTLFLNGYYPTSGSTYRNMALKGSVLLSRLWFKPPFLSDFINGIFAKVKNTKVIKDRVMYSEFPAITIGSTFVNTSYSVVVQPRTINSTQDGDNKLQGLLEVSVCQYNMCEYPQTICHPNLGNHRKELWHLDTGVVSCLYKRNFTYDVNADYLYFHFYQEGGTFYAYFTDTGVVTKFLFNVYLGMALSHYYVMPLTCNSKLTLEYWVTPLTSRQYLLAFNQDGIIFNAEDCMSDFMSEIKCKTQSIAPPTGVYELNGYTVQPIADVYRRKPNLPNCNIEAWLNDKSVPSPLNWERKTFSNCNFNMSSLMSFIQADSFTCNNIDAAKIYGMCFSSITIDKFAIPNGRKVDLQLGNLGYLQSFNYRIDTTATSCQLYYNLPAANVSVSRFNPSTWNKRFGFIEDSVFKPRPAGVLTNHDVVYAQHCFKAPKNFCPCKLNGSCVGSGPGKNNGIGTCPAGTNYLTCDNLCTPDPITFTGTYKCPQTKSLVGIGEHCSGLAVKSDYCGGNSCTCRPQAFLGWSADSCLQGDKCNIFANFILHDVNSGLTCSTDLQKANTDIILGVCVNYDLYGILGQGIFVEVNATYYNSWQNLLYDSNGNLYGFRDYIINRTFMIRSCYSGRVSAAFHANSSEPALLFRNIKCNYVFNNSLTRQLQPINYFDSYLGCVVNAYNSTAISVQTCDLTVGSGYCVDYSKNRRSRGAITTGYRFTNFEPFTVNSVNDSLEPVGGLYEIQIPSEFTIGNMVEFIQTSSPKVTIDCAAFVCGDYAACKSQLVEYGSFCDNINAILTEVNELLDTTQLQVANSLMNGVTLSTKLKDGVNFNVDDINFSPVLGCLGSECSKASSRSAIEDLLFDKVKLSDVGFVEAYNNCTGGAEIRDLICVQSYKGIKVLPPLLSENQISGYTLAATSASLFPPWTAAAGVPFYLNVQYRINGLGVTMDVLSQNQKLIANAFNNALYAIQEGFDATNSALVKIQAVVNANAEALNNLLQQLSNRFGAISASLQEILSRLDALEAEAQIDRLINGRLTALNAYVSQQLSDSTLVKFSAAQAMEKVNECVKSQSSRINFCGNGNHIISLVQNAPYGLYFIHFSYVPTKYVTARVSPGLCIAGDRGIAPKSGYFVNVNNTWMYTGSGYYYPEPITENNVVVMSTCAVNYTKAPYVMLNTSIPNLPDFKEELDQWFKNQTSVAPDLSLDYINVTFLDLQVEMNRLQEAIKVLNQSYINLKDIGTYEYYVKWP
Test readout: Kd

[Q] Form field - read-out: Kd; system: HCoV-OC43 spike protein (Human coronavirus OC43, UniProt P36334); submitted item: `CN(/N=C/c1ccccc1C(=O)O)c1nc(-c2ccccc2Cl)cs1`
[A] 33.3 µM
